Data origin, for the record: ChEMBL document CHEMBL1123126

IC50 values by entry
Assay: Evaluated for the inhibition of human gastrointestinal adenocarcinoma cells in vitro by SW480 assay
Type: functional, cell-based
property name: IC50 (nM)

* Nc1nc(N)c2cc(NCc3ccc(C(=O)NC(CCC(=O)O)C(=O)O)cc3)ccc2n1 (configuration not stated) | 200
* CN(Cc1ccc(C(=O)NC(CCC(=O)O)C(=O)O)cc1)c1ccc2nc(N)nc(N)c2c1 (configuration not stated) | 26
* Nc1nc(N)c2cc(CN(C=O)c3ccc(C(=O)NC(CCC(=O)O)C(=O)O)cc3)ccc2n1 (configuration not stated) | 84
* CN(Cc1cnc2nc(N)nc(N)c2n1)c1ccc(C(=O)N[C@@H](CCC(=O)O)C(=O)O)cc1 [METHOTREXATE] | 15
* Nc1nc(N)c2cc(N(C=O)Cc3ccc(C(=O)NC(CCC(=O)O)C(=O)O)cc3)ccc2n1 (configuration not stated) | 420
* CN(Cc1ccc2nc(N)nc(N)c2c1)c1ccc(C(=O)NC(CCC(=O)O)C(=O)O)cc1 (configuration not stated) | 5
* Nc1nc(N)c2cc(CNc3ccc(C(=O)NC(CCC(=O)O)C(=O)O)cc3)ccc2n1 (configuration not stated) | 3.7

###

Biological target: Dihydrofolate reductase (Mus musculus, UniProt P00375)
Experiment: Evaluated for the inhibition of dihydrofolate reductase from L1210 mouse leukemia cells
Type: cell-based
Details: read-out: I50
property name: IC50

* CN(Cc1ccc(C(=O)NC(CCC(=O)O)C(=O)O)cc1)c1ccc2nc(N)nc(N)c2c1 (centres undefined) | 0.051 µM
* Nc1nc(N)c2cc(N(C=O)Cc3ccc(C(=O)NC(CCC(=O)O)C(=O)O)cc3)ccc2n1 (centres undefined) | 0.07 µM
* Nc1nc(N)c2cc(CNc3ccc(C(=O)NC(CCC(=O)O)C(=O)O)cc3)ccc2n1 (centres undefined) | 0.048 µM
* Nc1nc(N)c2cc(NCc3ccc(C(=O)NC(CCC(=O)O)C(=O)O)cc3)ccc2n1 (centres undefined) | 0.06 µM

###

Biological target: Dihydrofolate reductase (Rattus norvegicus)
Assay: Inhibition of rat liver dihydrofolate reductase assayed spectrophotometrically at […]
# reported IC50; entries follow
property name: IC50

* Nc1nc(N)c2cc(N(C=O)Cc3ccc(C(=O)NC(CCC(=O)O)C(=O)O)cc3)ccc2n1 (stereo not drawn) | 4.7 nM
* Nc1nc(N)c2cc(CNc3ccc(C(=O)NC(CCC(=O)O)C(=O)O)cc3)ccc2n1 (stereo not drawn) | 4.8 nM
* CN(Cc1ccc(C(=O)NC(CCC(=O)O)C(=O)O)cc1)c1ccc2nc(N)nc(N)c2c1 (stereo not drawn) | 3.3 nM

###

Overview of reported IC50 across a group of compounds:
Biological target: Dihydrofolate reductase (Mus musculus, UniProt P00375)
Sequence (P00375 whole entry): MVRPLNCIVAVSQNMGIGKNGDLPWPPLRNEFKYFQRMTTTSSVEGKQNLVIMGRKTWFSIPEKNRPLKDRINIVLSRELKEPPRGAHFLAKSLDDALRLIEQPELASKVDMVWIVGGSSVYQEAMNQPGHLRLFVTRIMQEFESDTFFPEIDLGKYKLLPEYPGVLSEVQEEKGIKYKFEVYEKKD
Experiment: Evaluated for the inhibition of DHFR from L1210 mouse leukemia cells
Format: cell-based
Conditions: read-out: I50
property name: IC50 (µM)

• Nc1nc(N)c2cc(CN(C=O)c3ccc(C(=O)NC(CCC(=O)O)C(=O)O)cc3)ccc2n1 (configuration not stated) = 0.067
• CN(Cc1ccc2nc(N)nc(N)c2c1)c1ccc(C(=O)NC(CCC(=O)O)C(=O)O)cc1 (configuration not stated) = 0.051

###

Biological target: Dihydrofolate reductase (Rattus norvegicus, UniProt Q920D2)
Sequence (Q920D2 whole entry): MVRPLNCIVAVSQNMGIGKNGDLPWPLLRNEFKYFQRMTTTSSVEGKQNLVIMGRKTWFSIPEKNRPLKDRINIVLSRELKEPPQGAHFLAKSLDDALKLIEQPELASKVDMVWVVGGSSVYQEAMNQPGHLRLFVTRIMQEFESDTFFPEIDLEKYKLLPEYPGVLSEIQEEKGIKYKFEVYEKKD
Assay: Inhibition of rat liver DHFR assayed spectrophotometrically at […]
property name: IC50 (nM)

* Nc1nc(N)c2cc(CN(C=O)c3ccc(C(=O)NC(CCC(=O)O)C(=O)O)cc3)ccc2n1 (configuration not stated) | 4.9
* CN(Cc1ccc2nc(N)nc(N)c2c1)c1ccc(C(=O)NC(CCC(=O)O)C(=O)O)cc1 (configuration not stated) | 5.3

###

System: L1210
Assay: Evaluated for the growth inhibition of L1210 /S cells
Type: functional, cell-based
Conditions: Mus musculus, read-out: I50
pIC50: −log10 of the molar value.
property name: pIC50

* Nc1nc(N)c2cc(NCc3ccc(C(=O)NC(CCC(=O)O)C(=O)O)cc3)ccc2n1 (configuration not stated) | 5.82
* CN(Cc1ccc(C(=O)NC(CCC(=O)O)C(=O)O)cc1)c1ccc2nc(N)nc(N)c2c1 (configuration not stated) | 6.33
* CN(Cc1ccc2nc(N)nc(N)c2c1)c1ccc(C(=O)NC(CCC(=O)O)C(=O)O)cc1 (configuration not stated) | 7.77
* Nc1nc(N)c2cc(CN(C=O)c3ccc(C(=O)NC(CCC(=O)O)C(=O)O)cc3)ccc2n1 (configuration not stated) | 6.24
* Nc1nc(N)c2cc(CNc3ccc(C(=O)NC(CCC(=O)O)C(=O)O)cc3)ccc2n1 (configuration not stated) | 7.68
* Nc1nc(N)c2cc(N(C=O)Cc3ccc(C(=O)NC(CCC(=O)O)C(=O)O)cc3)ccc2n1 (configuration not stated) | 5.17
* CN(Cc1cnc2nc(N)nc(N)c2n1)c1ccc(C(=O)N[C@@H](CCC(=O)O)C(=O)O)cc1 [METHOTREXATE] | 7.92

###

System: L1210 ( R81)
Test: cells
Type: functional, cell-based
Details: Mus musculus, 48 h
property name: IC50 (µM)

* CN(Cc1ccc2nc(N)nc(N)c2c1)c1ccc(C(=O)NC(CCC(=O)O)C(=O)O)cc1 (stereo not given) | 23
* Nc1nc(N)c2cc(NCc3ccc(C(=O)NC(CCC(=O)O)C(=O)O)cc3)ccc2n1 (stereo not given) | 42
* CN(Cc1cnc2nc(N)nc(N)c2n1)c1ccc(C(=O)N[C@@H](CCC(=O)O)C(=O)O)cc1 [METHOTREXATE] | 205
* Nc1nc(N)c2cc(CNc3ccc(C(=O)NC(CCC(=O)O)C(=O)O)cc3)ccc2n1 (stereo not given) | 46
